Data provenance: the NIST ThermoML archive (doi:10.1016/j.jct.2017.08.004)

# Experiment: molar heat capacity at constant pressure
# Conditions Used: 195.15 K; 101.33 kPa; Crystal; Small sample (50 mg) DSC
molar heat capacity at constant pressure listing for selected compounds.
# value in J/K/mol; strip the unit string

1) OC[C@@H](O)[C@H](O)[C@@H](O)CO [xylitol] | 136.05
2) O[C@H]1[C@H](O)[C@@H](O)[C@H](O)[C@@H](O)[C@H]1O [cis-1,2,3,5-trans-4,6-cyclohexanehexol] | 138.44

Q: Entry OC[C@@H](O)[C@@H](O)[C@H](O)[C@H](O)CO [D-mannitol] has what molar heat capacity at constant pressure?
Result: 151.06

Q: Request: OC[C@@H](O)C(O)[C@H](O)CO [D-arabitol]
Result: 129.68

Q: Request: OC[C@@H](O)[C@@H](O)CO [meso-1,2,3,4-butanetetrol]
Result: 109.73

Q: Request: OC[C@H](O)C(O)[C@@H](O)CO [L-(-)-arabitol]
Result: 135.91
